Entries and their Plant response rating, Blackgrass values follow.
# Tested on: blackgrass
# Assay: Test C postemergence
# Type: in vivo, Alopecurus myosuroides
# Assay Context: Postemergence, 62 g ai/ha; scale 0 to 100 (0 no effect, 100 complete control)
Number, no unit, nothing else.

Take a look at these entries with their results.
# Structure Smiles, Plant response rating, Blackgrass
records = [
    ("Fc1cccc(Oc2ncc(Cl)cn2)c1-n1cc(Cl)cn1", 5),
    ("FC(F)(F)c1cnn(-c2c(Br)cccc2Oc2ncc(Cl)cn2)c1", 5),
    ("O=Cc1cccc(Oc2ncc(I)cn2)c1-n1cc(Br)cn1", 0),
]

Now take the following molecule into account.
Task: Input N#Cc1cccc(Oc2ncc(Cl)cn2)c1-n1cc(Cl)cn1 , output reported Plant response rating, Blackgrass.
Output: 10

----------
# System: barnyardgrass
# Assay: Test A postemergence
# Format: in vivo, Echinochloa crus-galli
# Assay Context: 1000 g ai/ha, 0 to 100 scale, 0 no effect, 100 complete control
# Description: […]
Property Label: Plant response rating, Barnyardgrass
Enter the number alone.

Sample answers from the record:
# Structure Smiles, Plant response rating, Barnyardgrass
records = [
    ("Clc1cnc(Oc2ccccc2-n2cc(I)nn2)nc1", 100),
    ("Clc1cnc(Oc2cccc(I)c2-n2cc(Br)cn2)nc1", 80),
    ("C=C(C)c1cn(-c2c(Br)cccc2Oc2ncc(Cl)cn2)nn1", 100),
    ("CCN(CC)C(=O)c1cccc(Oc2ncc(Cl)cn2)c1-n1cc(C(F)(F)F)cn1", 0),
    ("FCc1cn(-c2ccccc2Oc2ncc(Cl)cn2)nn1", 100),
]

Would you kindly look at the next entry?
Task: Please list Plant response rating, Barnyardgrass recorded for the compound N#Cc1cnn(-c2ccccc2Oc2ncc(Br)cn2)n1
Output: 30

----------
# Test system: giant foxtail
# Assay: Test A postemergence
# Type: in vivo, Setaria faberii
# Assay Context: 500 g ai/ha, 0 to 100 scale where 0 is no effect and 100 is complete control
Property Label: Plant response rating, Foxtail, Giant

# Compound, Plant response rating, Foxtail, Giant
measured = [
    ("N#Cc1cnc(Oc2ccccc2-n2cccn2)nc1 [Compound 226]", 0),
]

Task: Indicate its recorded Plant response rating, Foxtail, Giant; the compound in question is N#Cc1cnn(-c2c(C#N)cccc2Oc2ncc(Br)cn2)c1 [Compound 135]
Output: 100

Task: In one line, give reported Plant response rating, Foxtail, Giant of the entry FC(F)c1cccc(Oc2ncc(Cl)cn2)c1-n1cc(C(F)(F)F)cn1 [Compound 170] .
Output: 90

Task: State its Plant response rating, Foxtail, Giant: N#Cc1cccc(Oc2ncc(I)cn2)c1-n1cc(I)cn1 [Compound 87]
Output: 60

Task: State its Plant response rating, Foxtail, Giant for this compound: CC(C)c1cnc(Oc2cccc(C#N)c2-n2cc(Br)cn2)nc1 [Compound 130]
Output: 0

Task: Give the reported Plant response rating, Foxtail, Giant for this compound. FC(F)c1cnn(-c2c(Br)cccc2Oc2ncc(Cl)cn2)c1 [Compound 232]
Output: 90

----------
# Test system: large (Lg) crabgrass
# Assay: Test A postemergence
# Format: in vivo, Digitaria sanguinalis
# Assay Context: 125 g ai/ha, 0 to 100 scale where 0 is no effect and 100 is complete control
Property Label: Crabgrass, Large plant response rating
Form: value (number only, do not type unit).

# Structure Smiles, Property Label, Meas Value
rows = [
    ("FC(F)c1cccc(Oc2ncc(Cl)cn2)c1-n1cc(C(F)(F)F)cn1", "Crabgrass, Large plant response rating", 70),
    ("COC(=O)c1cccc(Oc2ncc(Cl)cn2)c1-n1cc(Br)cn1", "Crabgrass, Large plant response rating", 10),
    ("Fc1cccc(Oc2ncc(Cl)cn2)c1-n1cc(Cl)cn1", "Crabgrass, Large plant response rating", 80),
    ("Clc1cnc(Oc2cccc(Cl)c2-n2cc(I)cn2)nc1", "Crabgrass, Large plant response rating", 70),
]

Then this molecule:
Task: Given the molecule Fc1cnc(Oc2ccccc2-n2cc(C(F)F)cn2)nc1 , write its reported Crabgrass, Large plant response rating.
Output: 40
